TESTED_TARGET: progesterone receptor ligand binding domain (GST-tagged PR LBD) (Homo sapiens)
Sequence (P06401 679-913 limits assumed): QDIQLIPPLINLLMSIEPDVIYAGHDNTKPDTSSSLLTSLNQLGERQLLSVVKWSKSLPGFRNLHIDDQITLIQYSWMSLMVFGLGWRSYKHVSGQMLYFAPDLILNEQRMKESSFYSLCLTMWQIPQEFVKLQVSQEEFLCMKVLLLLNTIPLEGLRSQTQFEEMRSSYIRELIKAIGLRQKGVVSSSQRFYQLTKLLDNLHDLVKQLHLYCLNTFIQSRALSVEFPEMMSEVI
pIC50: −log10 of the molar value.
Would you mind telling me the reported pIC50 of each entry?

Below are worked cases with known answers.
CCS(=O)(=O)c1ccc(Oc2cccc(OCCN3CCN(c4ncc5c(n4)CN([C@H]4C(C)(C)[C@H](Oc6ccc(C#N)c(Cl)c6)C4(C)C)C5=O)CC3)c2F)c(-c2cn(C)c(=O)c3[nH]ccc23)c1 [Compound I-217] : > 7.30
CCS(=O)(=O)c1ccc(OC(CCCCN2CCN(c3ncc(C(=O)NC4C(C)(C)C(Oc5ccc(C#N)c(Cl)c5)C4(C)C)cn3)CC2)C2CC2)c(-c2cn(C)c(=O)c3[nH]ccc23)c1 (stereo not drawn) [Compound I-223] : 6.30 to 7.30
CC(C)N(CCN(C)C1CCN(c2ncc(C(=O)N[C@H]3C(C)(C)[C@H](Oc4ccc(C#N)c(Cl)c4)C3(C)C)cn2)CC1)c1cccc(Oc2ccc(C(C)(C)O)cc2-c2cn(C)c(=O)c3[nH]ccc23)c1F [Compound I-226] : > 7.30
CCS(=O)(=O)c1ccc(Oc2cccc(CCCC3CCN(c4ncc(C(=O)N[C@H]5C(C)(C)[C@H](Oc6ccc(C#N)c(Cl)c6)C5(C)C)cn4)CC3)c2F)c(-c2cn(C)c(=O)c3[nH]ccc23)c1 [Compound I-245] : 5.60 to 6.30
CCS(=O)(=O)c1ccc(Oc2ccc(OCC3CCN(c4ncc5c(n4)CN([C@H]4C(C)(C)[C@H](Cc6ccc(C#N)c(Cl)c6)C4(C)C)C5=O)CC3)cc2)c(-c2cn(C)c(=O)c3[nH]ccc23)c1 [Compound I-220] : 6.30 to 7.30
Cn1cc(-c2cc(C(C)(C)O)ccc2Oc2cccc(OCCN3CCN(c4ncc(C(=O)N[C@H]5C(C)(C)[C@H](Oc6ccc(C#N)c(Cl)c6)C5(C)C)cn4)CC3)c2F)c2cc[nH]c2c1=O [Compound I-99] : 6.30 to 7.30
CCS(=O)(=O)Nc1ccc(Oc2cccc(N3CC(C4CCN(c5ncc(C(=O)N[C@H]6C(C)(C)[C@H](Oc7ccc(C#N)c(Cl)c7)C6(C)C)cn5)CC4)C3)c2)c(-c2cn(C)c(=O)c3[nH]ccc23)c1 [Compound I-74] : < 5.60
CN(C1CCN(c2ncc(C(=O)N[C@H]3C(C)(C)[C@H](Oc4ccc(C#N)c(Cl)c4)C3(C)C)cn2)CC1)C1CN(c2ccc(Oc3ccc(C(C)(C)O)cc3-c3cn(C)c(=O)c4[nH]ccc34)cc2)C1 [Compound I-208] : 6.30 to 7.30

As a next step, examine the molecule that follows.
pIC50 for Cn1cc(-c2cc(C(C)(C)O)ccc2Oc2ccc(N3CC(CN4CC5CC4CN5c4ncc(C(=O)N[C@H]5C(C)(C)[C@H](Oc6ccc(C#N)c(Cl)c6)C5(C)C)cn4)C3)cc2)c2cc[nH]c2c1=O (stereo partly drawn) [Compound I-228] ?
6.30 to 7.30
